test system: HCT 116 human colon carcinoma cells; assay: Antiproliferative activity against HCT 116 human colon carcinoma cells (XTT); format: cell-based; conditions: HCT 116 cells, 72 hours incubation, XTT, 50% inhibition of cell proliferation, read-out: GI50
Lab note: cut-off is 200 nM. Strictly less in GI50 is TRUE. Exactly 200 nM or more is FALSE.

>  <MOLECULE>
CC(=O)N1N=C(c2ccccc2)SC1(CNS(C)(=O)=O)c1ccccc1 (centres unmarked) [Compound 10]

>  <MEASUREMENT_TARGET>
HCT 116 human colon carcinoma cells

>  <ASSIGNED_LABEL>
TRUE

$$$$

In: Hello, is GI50 of the following molecule strictly smaller than 200 nM? CC(=O)N1N=C(c2ccccc2F)SC1(CNC(=O)CN)c1ccccc1 (centres unmarked) [Compound 55]
Out: TRUE

In: Hello, is GI50 of the following molecule strictly smaller than 200 nM? CC(=O)N1N=C(c2ccccc2F)SC1(CCNC(=O)CCCN(C)C)c1ccccc1 (centres unmarked) [Compound 61]
Out: TRUE
